# key: entry, value: Kd
Biological target: tandem WW domain of FBP21 (Homo sapiens)
Construct: multivalent peptide-polymer conjugates and the tandem WW domain of protein FBP21 determined at 8 °C by ITC measurements; made in house; host or cells: E. coli BL21 (DE3)
Sequence (O75554 122-196 limits assumed): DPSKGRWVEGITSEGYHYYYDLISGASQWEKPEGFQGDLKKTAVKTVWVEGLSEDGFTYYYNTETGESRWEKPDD
Assay: Isothermal titration calorimetry (ITC) of peptide–polymer conjugates with tandem WW domain
Assay type: binding
Conditions: ITC at 8 °C, PBS pH 7.4, 2 µl aliquots of conjugate titrated into 50-70 µM protein; KD related to polymer concentration; 1:1 binding model; read-out: KD (binding affinities of peptide–polymer conjugates)

[
  {
    "SUBSTANCE": "CGPPPRGPPPR [Dex-1]",
    "DISPLAY UNIT": "µM",
    "MEASUREMENT QUALIFIER": "=",
    "Kd": 7
  },
  {
    "SUBSTANCE": "Ac-GPPPRGPPPR-NH2 [Ac-P1]",
    "DISPLAY UNIT": "µM",
    "MEASUREMENT QUALIFIER": ">",
    "Kd": 1000
  },
  {
    "SUBSTANCE": "CGPPPRGPPPR [pHPMA-1, poly(N-(2-hydroxypropyl)methacrylamide) NCL-polymer conjugated with 6 copies of P2 by native chemical ligation]",
    "DISPLAY UNIT": "µM",
    "MEASUREMENT QUALIFIER": "=",
    "Kd": 5
  },
  {
    "SUBSTANCE": "CGPPPRGPPPR [hPG-2, hyperbranched polyglycerol modified with maleimido groups, coupled with 4 copies of P2]",
    "DISPLAY UNIT": "µM",
    "MEASUREMENT QUALIFIER": "=",
    "Kd": 5
  }
]
